System: TK-10
Experiment: NCI tumour cell line growth inhibition, 48 h
The source made the active and inactive calls. Rule as the data show it: active = GI50 up to about 1.1 µM and inactive = higher.
Give GI50 for every item shown.

Sample answers from the record:
>  <compound>
Cc1cc(-c2ccc(C(=O)C(Cl)(Cl)Cl)[nH]2)on1

>  <quantity_name>
GI50

>  <endpoint_value>
27.4 µM (inactive)

$$$$
>  <compound>
CN(C)CCCNC(=O)N/N=C/c1ccc(O)cc1

>  <quantity_name>
GI50

>  <endpoint_value>
> 100 µM (inactive)

$$$$
>  <compound>
COc1cc2c(cc1OC)C1Cc3ccc(OC)c(OC)c3C[N+]1([O-])CC2 (centres undefined)

>  <quantity_name>
GI50

>  <endpoint_value>
> 100 µM (inactive)

$$$$

Each compound below has a reported value. Please supply its GI50.
1. C=CCc1oc(C)nc1CCCC
2. C/C(CC(O)(C(F)(F)F)C(F)(F)F)=N\O
3. CC(C)(C)OC(=O)n1cc(C2CNC(=O)C23CCC(=O)N3Cc2ccccc2)c2ccccc21 (centres undefined)
4. O/N=C1/C2CC3CC1(c1ccccc1)CC(/C3=N/O)/C2=N\O (centres undefined)
5. Cc1cccc(C(=O)c2cccc3ccccc23)c1C(=O)O
6. CN(C)NC(=O)NC12CC3CC(CC(C3)C1)C2

["> 100 µM (inactive)", "> 10 µM (inactive)", "17.1 µM (inactive)", "> 100 µM (inactive)", "> 100 µM (inactive)", "> 10 µM (inactive)"]
